Test system: Aspergillus fumigatus
run_description: Antifungal activity against Aspergillus fumigatus
Type: functional, organism-based
The source made the active and inactive calls.
measured_parameter: Activity

Solved entries:
{"compound": "COc1cc(NC(C)CCCNC(=O)CC[C@H](NC(=O)[C@@H](N)CCCNC(=N)N)C(=O)O)c2nc(C(C)(C)C)ccc2c1 (some centres not stated)", "result": "inactive"}
{"compound": "COc1cc(NC(C)CCCNC(=O)[C@@H](CCCNC(=N)N)NC(=O)[C@H](N)CCCNC(=N)N)c2nc(C(C)(C)C)ccc2c1 (some centres not stated)", "result": "inactive"}
{"compound": "COc1cc(NC(C)CCCNC(=O)CC[C@H](NC(=O)[C@@H](N)CCCN)C(=O)O)c2nc(C(C)(C)C)ccc2c1 (some centres not stated)", "result": "inactive"}
{"compound": "COc1cc(NC(C)CCCNC(=O)C[C@H](NC(=O)[C@@H](N)CCCCN)C(=O)O)c2nc(C(C)(C)C)ccc2c1 (some centres not stated)", "result": "inactive"}
{"compound": "COc1cc(NC(C)CCCNC(=O)[C@H](CCCCN)NC(=O)[C@@H](N)CCCCN)c2nc(C(C)(C)C)ccc2c1 (some centres not stated)", "result": "inactive"}
{"compound": "COc1cc(NC(C)CCCNC(=O)[C@@H](CCCN)NC(=O)[C@H](N)CCCN)c2nc(C(C)(C)C)ccc2c1 (some centres not stated)", "result": "inactive"}

Consider the record given below.
Summary for this compound, COc1cc(NC(C)CCCNC(=O)CC[C@@H](NC(=O)[C@H](N)CCCCN)C(=O)O)c2nc(C(C)(C)C)ccc2c1 (some centres not stated) : Activity is inactive

====

System: Leishmania donovani
run_description: Antileishmanial activity against Leishmania donovani promastigote by Alamar Blue assay
Assay type: functional, organism-based
measured_parameter: IC50

{"compound": "COc1cc(NC(C)CCCNC(=O)CC[C@@H](NC(=O)[C@H](N)CCCNC(=N)N)C(=O)O)c2ncccc2c1 (stereo partly specified)", "IC50": "Not Active"}
{"compound": "COc1cc(NC(C)CCCNC(=O)CC[C@H](NC(=O)[C@@H](N)CCCN)C(=O)O)c2nc(C(C)(C)C)ccc2c1 (stereo partly specified)", "IC50": "Not Active"}
{"compound": "COc1cc(NC(C)CCCNC(=O)CC[C@H](NC(=O)[C@@H](N)CCCN)C(=O)O)c2ncccc2c1 (stereo partly specified)", "IC50": "Not Active"}
{"compound": "COc1cc(NC(C)CCCNC(=O)NCCCC[C@H](N)C(=O)O)c2ncccc2c1 (stereo partly specified)", "IC50": "Not Active"}
{"compound": "COc1cc(NC(C)CCCNC(=O)CC[C@@H](NC(=O)[C@H](N)CCCN)C(=O)O)c2nc(C(C)(C)C)ccc2c1 (stereo partly specified)", "IC50": "Not Active"}

Summary for this compound, COc1cc(NC(C)CCCNC(=O)C[C@H](NC(=O)[C@@H](N)CCCNC(=N)N)C(=O)O)c2nc(C(C)(C)C)ccc2c1 (stereo partly specified) : IC50 is Not Active

Summary for this compound, COc1cc(NC(C)CCCNC(=O)NCCCC[C@H](N)C(=O)O)c2nc(C(C)(C)C)ccc2c1 (stereo partly specified) : IC50 is Not Active

Summary for this compound, COc1cc(NC(C)CCCNC(=O)CC[C@H](NC(=O)[C@@H](N)CCCNC(=N)N)C(=O)O)c2ncccc2c1 (stereo partly specified) : IC50 is Not Active

Summary for this compound, COc1cc(NC(C)CCCNC(=O)CC[C@H](NC(=O)[C@@H](N)CCCCN)C(=O)O)c2nc(C(C)(C)C)ccc2c1 (stereo partly specified) : IC50 is Not Active

Summary for this compound, COc1cc(NC(C)CCCNC(=O)CC[C@@H](NC(=O)[C@H](N)CCCNC(=N)N)C(=O)O)c2nc(C(C)(C)C)ccc2c1 (stereo partly specified) : IC50 is Not Active

Summary for this compound, COc1cc(NC(C)CCCNC(=O)C[C@@H](NC(=O)[C@H](N)CCCNC(=N)N)C(=O)O)c2nc(C(C)(C)C)ccc2c1 (stereo partly specified) : IC50 is Not Active

Summary for this compound, COc1cc(NC(C)CCCNC(=O)[C@H](CCCNC(=N)N)NC(=O)[C@@H](N)CCCNC(=N)N)c2ncccc2c1 (stereo partly specified) : IC50 is Not Active

Summary for this compound, COc1cc(NC(C)CCCNC(=O)C[C@@H](NC(=O)[C@H](N)CCCN)C(=O)O)c2nc(C(C)(C)C)ccc2c1 (stereo partly specified) : IC50 is Not Active

Summary for this compound, COc1cc(NC(C)CCCNC(=O)C[C@@H](NC(=O)[C@H](N)CCCCN)C(=O)O)c2nc(C(C)(C)C)ccc2c1 (stereo partly specified) : IC50 is Not Active

Summary for this compound, COc1cc(NC(C)CCCNC(=O)[C@H](CCCCN)NC(=O)[C@@H](N)CCCCN)c2ncccc2c1 (stereo partly specified) : IC50 is Not Active

Summary for this compound, COc1cc(NC(C)CCCNC(=O)[C@@H](CCCCN)NC(=O)[C@H](N)CCCCN)c2nc(C(C)(C)C)ccc2c1 (stereo partly specified) : IC50 is Not Active

====

run_description: Inhibition of beta-hematin formation
Type: functional
pIC50: −log10 of the molar value.
true (1) means recorded pIC50 is 4 or above; false (0) means it is below 4.

Is pIC50 for COc1cc(NC(C)CCCNC(=O)[C@@H](CCCNC(=N)N)NC(=O)[C@H](N)CCCNC(=N)N)c2nc(C(C)(C)C)ccc2c1 (some centres not stated) at or above 4?
false (0)

Is pIC50 for COc1cc(NC(C)CCCNC(=O)[C@H](CCCCN)NC(=O)[C@@H](N)CCCCN)c2nc(C(C)(C)C)ccc2c1 (some centres not stated) at or above 4?
true (1)

Is pIC50 for COc1cc(NC(C)CCCNC(=O)CC[C@@H](NC(=O)[C@H](N)CCCCN)C(=O)O)c2ncccc2c1 (some centres not stated) at or above 4?
false (0)

Is pIC50 for COc1cc(NC(C)CCCNC(=O)C[C@H](NC(=O)[C@@H](N)CCCCN)C(=O)O)c2nc(C(C)(C)C)ccc2c1 (some centres not stated) at or above 4?
false (0)

Is pIC50 for COc1cc(NC(C)CCCNC(=O)NCCC[C@@H](N)C(=O)O)c2ncccc2c1 (some centres not stated) at or above 4?
false (0)

Is pIC50 for COc1cc(NC(C)CCCNC(=O)NCCC[C@@H](N)C(=O)O)c2nc(C(C)(C)C)ccc2c1 (some centres not stated) at or above 4?
false (0)

Is pIC50 for COc1cc(NC(C)CCCNC(=O)NCCCC[C@H](N)C(=O)O)c2ncccc2c1 (some centres not stated) at or above 4?
false (0)

Is pIC50 for COc1cc(NC(C)CCCNC(=O)CC[C@@H](NC(=O)[C@H](N)CCCCN)C(=O)O)c2nc(C(C)(C)C)ccc2c1 (some centres not stated) at or above 4?
false (0)

Is pIC50 for COc1cc(NC(C)CCCNC(=O)[C@@H](CCCCN)NC(=O)[C@H](N)CCCCN)c2ncccc2c1 (some centres not stated) at or above 4?
false (0)

Is pIC50 for COc1cc(NC(C)CCCNC(=O)C[C@H](NC(=O)[C@@H](N)CCCCN)C(=O)O)c2ncccc2c1 (some centres not stated) at or above 4?
true (1)

Is pIC50 for COc1cc(NC(C)CCCN)c2ncccc2c1 (configuration not stated) at or above 4?
false (0)

Is pIC50 for COc1cc(NC(C)CCCNC(=O)NCCCC[C@H](N)C(=O)O)c2nc(C(C)(C)C)ccc2c1 (some centres not stated) at or above 4?
false (0)

Is pIC50 for COc1cc(NC(C)CCCNC(=O)CC[C@H](NC(=O)[C@@H](N)CCCN)C(=O)O)c2nc(C(C)(C)C)ccc2c1 (some centres not stated) at or above 4?
false (0)

Is pIC50 for COc1cc(NC(C)CCCNC(=O)C[C@H](NC(=O)[C@@H](N)CCCN)C(=O)O)c2nc(C(C)(C)C)ccc2c1 (some centres not stated) at or above 4?
true (1)

Is pIC50 for COc1cc(NC(C)CCCNC(=O)CC[C@H](NC(=O)[C@@H](N)CCCN)C(=O)O)c2ncccc2c1 (some centres not stated) at or above 4?
false (0)

Is pIC50 for COc1cc(NC(C)CCCNC(=O)[C@@H](CCCN)NC(=O)[C@H](N)CCCN)c2nc(C(C)(C)C)ccc2c1 (some centres not stated) at or above 4?
true (1)

Is pIC50 for COc1cc(NC(C)CCCNC(=O)C[C@@H](NC(=O)[C@H](N)CCCCN)C(=O)O)c2ncccc2c1 (some centres not stated) at or above 4?
false (0)

Is pIC50 for COc1cc(NC(C)CCCNC(=O)CC[C@@H](NC(=O)[C@H](N)CCCN)C(=O)O)c2ncccc2c1 (some centres not stated) at or above 4?
false (0)

Is pIC50 for COc1cc(NC(C)CCCNC(=O)CC[C@@H](NC(=O)[C@H](N)CCCN)C(=O)O)c2nc(C(C)(C)C)ccc2c1 (some centres not stated) at or above 4?
false (0)

Is pIC50 for COc1cc(NC(C)CCCNC(=O)C[C@@H](NC(=O)[C@H](N)CCCN)C(=O)O)c2nc(C(C)(C)C)ccc2c1 (some centres not stated) at or above 4?
false (0)

Is pIC50 for COc1cc(NC(C)CCCNC(=O)C[C@@H](NC(=O)[C@H](N)CCCN)C(=O)O)c2ncccc2c1 (some centres not stated) at or above 4?
false (0)

Is pIC50 for COc1cc(NC(C)CCCNC(=O)[C@@H](CCCNC(=N)N)NC(=O)[C@H](N)CCCNC(=N)N)c2ncccc2c1 (some centres not stated) at or above 4?
true (1)

Is pIC50 for COc1cc(NC(C)CCCNC(=O)[C@@H](CCCN)NC(=O)[C@H](N)CCCN)c2ncccc2c1 (some centres not stated) at or above 4?
false (0)

Is pIC50 for COc1cc(NC(C)CCCNC(=O)[C@H](CCCN)NC(=O)[C@@H](N)CCCN)c2ncccc2c1 (some centres not stated) at or above 4?
false (0)

Is pIC50 for COc1cc(NC(C)CCCNC(=O)C[C@@H](NC(=O)[C@H](N)CCCNC(=N)N)C(=O)O)c2ncccc2c1 (some centres not stated) at or above 4?
false (0)

Is pIC50 for COc1cc(NC(C)CCCNC(=O)CC[C@@H](NC(=O)[C@H](N)CCCNC(=N)N)C(=O)O)c2nc(C(C)(C)C)ccc2c1 (some centres not stated) at or above 4?
false (0)

Is pIC50 for COc1cc(NC(C)CCCNC(=O)[C@@H](CCCCN)NC(=O)[C@H](N)CCCCN)c2nc(C(C)(C)C)ccc2c1 (some centres not stated) at or above 4?
false (0)

Is pIC50 for COc1cc(NC(C)CCCNC(=O)C[C@@H](NC(=O)[C@H](N)CCCCN)C(=O)O)c2nc(C(C)(C)C)ccc2c1 (some centres not stated) at or above 4?
false (0)
